biological target: glycolipid transfer protein (GLTP) (Homo sapiens); assay: X-ray crystal structure ([…] Å); tryptophan fluorescence Kd; format: binding; design: recombinant human GLTP, His6- and S-tags removed by Factor Xa
Sequence (Q9NZD2 2-209): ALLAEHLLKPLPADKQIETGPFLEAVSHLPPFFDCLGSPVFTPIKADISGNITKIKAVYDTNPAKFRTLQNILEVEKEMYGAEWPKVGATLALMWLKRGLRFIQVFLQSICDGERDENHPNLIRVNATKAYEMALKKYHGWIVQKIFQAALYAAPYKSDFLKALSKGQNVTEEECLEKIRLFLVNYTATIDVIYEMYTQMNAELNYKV
Measured quantity: pKd
Bear in mind: pKd is minus log10 of a mol/L concentration; give just that figure.

Sample CCCCCCCC/C=C\CCCCCCCCCCCCCC(=O)N[C@@H](CO[C@@H]1O[C@H](CO)[C@H](O)[C@H](O)[C@H]1O)[C@H](O)/C=C/CCCCCCCCCCCCC — what was its pKd?
6.60
